Quick reference for koff among some binders
# tgt: T1, VEGF-D (recombinant human; source not given) (human, UniProt O43915 89-205, limits assumed)
# T1 construct: also used here as target of IC50 values averaged over Source 1 and Source 2; also called vascular endothelial growth factor-D
# T1 sequence: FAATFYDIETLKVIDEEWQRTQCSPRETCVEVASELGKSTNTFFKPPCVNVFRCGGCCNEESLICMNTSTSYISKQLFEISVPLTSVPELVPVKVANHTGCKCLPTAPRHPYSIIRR
# experimentNotes: SPR (BIAcore) off-rate ranking of scFv clones
propertyName: koff (s⁻¹)

INSERT INTO results (binder, propertyname, observedmeasurement) VALUES
  ('scFv clone D69 (scFv) scFv: QVQLVQSGAEVKQPGASVKVSCKASGYTFTGYNMYWVRQAPGQGLEWMGYIDPYNGDTTYNQKFKGRVTMTTDTSTSTAYMELRSLRSDDTAVYHCARTSYYGGMDYWGRGTLVTVASGGGASGGGGSGGGGSDIVMTQTPLSSPVTLGQPASISCRSSQSLVHSNGNTYLHWLQQRPGQPPRLLIYKVSNRFSGVPGRFSGSGAGTDFTLKISRVEAEDVGVYYCSQSTHVPRTFGQGTKLEIKR', 'koff', 0.00341),
  ('scFv clone CZ77 (scFv) scFv: QVQLVQSGAKVKQPGASVKASCKASGYTFTGYNMYWVRQAPGQGLEWMGYIDPYNGDTTYNQKFRGRVTMTTDTSTSTAYMELRSLRSDDTAVYYCARTSYYGGMDYWGRGTLVTVASGGGASGGGGSGGGGSDIVMTQTPLSSPVTLGQPASISCRSSQSLVHSNGNTYLHWLQQRPGQPPRLLIYKVSNRFSGVPDRFSGSGAGTDFTLKISRVEAEDVGVYYCSQSTHVPRTFGQGTKLEIKR', 'koff', 0.00408),
  ('scFv clone DD17 (scFv) scFv: QVQLVQSGAKVKQPGAGVKASCKASGYTFTGYNMYWVRQAPGQGLEWMGYIDPYNGDTTYNQKFKGRVTMTTDTSTSTAYMELRSLRSDDTAVYYCARTSYYGGMDYWGRGTLVTVASGGGASGGGGSGGGGSDIVMTQTPLSSPVTLGQPASISCRSSQSLVHSNGNTYLHWLQQRPGQPPRLLIYKVSNRFSGVPDRFSGSGAGTDFTLKISRVEAEDVGVYYCSQSTHVPRTFGQGTKLEIKR', 'koff', 0.0091);
